Reported IC50 values for a set of molecules
# target.or.system: PE-labeled human PD-L1-Ig binding to Jurkat cell line over-expressing human PD-1 (Jurkat-PD-1) (Homo sapiens)
# Construct: expressed in transfected cells; host or cells: Jurkat
# Sequence (Q15116 25-288): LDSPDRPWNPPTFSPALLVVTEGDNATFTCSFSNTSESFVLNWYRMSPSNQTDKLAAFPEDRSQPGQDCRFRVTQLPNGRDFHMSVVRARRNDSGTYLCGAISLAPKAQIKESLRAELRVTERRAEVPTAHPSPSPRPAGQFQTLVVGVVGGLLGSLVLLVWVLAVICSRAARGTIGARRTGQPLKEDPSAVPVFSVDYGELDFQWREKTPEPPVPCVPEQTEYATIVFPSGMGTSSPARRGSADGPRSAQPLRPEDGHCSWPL
# test.name: Jurkat-PD-1 Cell Binding High-Content Screening Assay (CBA): Method 1
# experimental.setup: Jurkat-hPD-1 cells, PE-labeled PD-L1-Ig 20 nM final; read-out: Jurkat HPDL1 PD1 IC50 (uM) (Method 1)
Numbered stars: 1 amine (or outer) side, 2 acyl side, 3 side chain; on linkers, the order of the positions; unused ones are H or OH. Bridge positions count the residues as written; N and C are the ends. Square brackets hold non-standard residues; d marks the D form. Peptide text beside a SMILES is read from it. X19 = Cc1cccc(-c2ccc(C[C@H](N[*:1])C(=O)[*:2])cc2)c1; Bip = N[C@@H](Cc1ccc(-c2ccccc2)cc1)C(=O)O; NMeA = CN[C@@H](C)C(=O)O
Please respond with the number in µM and leave the unit unwritten.

- molecule: "Cc1cccc(-c2ccc(C[C@@H]3NC(=O)[C@H](CC(C)C)NC(=O)[C@H](Cc4c[nH]c5ccccc45)NC(=O)[C@H](CC(=O)O)NC(=O)[C@H](Cc4ccc(O)cc4)NC(=O)[C@H](Cc4ccccc4)NC(=O)CSC[C@@H](C(=O)N[C@@H](C)C(N)=O)NC(=O)[C@H](CO)NC(=O)[C@H](C(C)C)NC(=O)[C@H](CC(C)C)NC(=O)[C@H](CC(N)=O)NC(=O)[C@@H](C)NC(=O)[C@H](C)N(C)C(=O)[C@H](C(C)C)NC3=O)cc2)c1 [Compound 1788] ({CH2CO}-FYDWL[X19]V[NMeA][dA]NLVSCA-NH2; thioether N-14)"
  units.of.measure: "µM"
  result.number: 0.11

// query Which IC50 is listed for CC(C)C[C@@H]1NC(=O)[C@H](Cc2c[nH]c3ccccc23)NC(=O)[C@H](CC(=O)O)NC(=O)[C@H](Cc2ccc(O)cc2)NC(=O)[C@H](Cc2ccccc2)NC(=O)CSC[C@@H](C(=O)NCC(N)=O)NC(=O)[C@H](CO)NC(=O)[C@H](C(C)C)NC(=O)[C@H](CC(C)C)NC(=O)[C@H](CC(N)=O)NC(=O)[C@@H](CC(C)C)NC(=O)[C@H](C)N(C)C(=O)[C@H](CCC(=O)O)NC(=O)[C@H](Cc2ccc(-c3ccccc3)cc2)NC1=O [Compound 1510] ({CH2CO}-FYDWL[Bip]E[NMeA][dL]NLVSCG-NH2; thioether N-14) ?
// result 0.06
